Molecular target: T1, recombinant full-length human beta-catenin (human, UniProt P35222 2-781, biotinylated in the ELISA and SPR assays (sites not given); not biotinylated on the Western blots)
T1 construct: Tags are not described; also called β-catenin; biotinylated beta-catenin
T1 sequence: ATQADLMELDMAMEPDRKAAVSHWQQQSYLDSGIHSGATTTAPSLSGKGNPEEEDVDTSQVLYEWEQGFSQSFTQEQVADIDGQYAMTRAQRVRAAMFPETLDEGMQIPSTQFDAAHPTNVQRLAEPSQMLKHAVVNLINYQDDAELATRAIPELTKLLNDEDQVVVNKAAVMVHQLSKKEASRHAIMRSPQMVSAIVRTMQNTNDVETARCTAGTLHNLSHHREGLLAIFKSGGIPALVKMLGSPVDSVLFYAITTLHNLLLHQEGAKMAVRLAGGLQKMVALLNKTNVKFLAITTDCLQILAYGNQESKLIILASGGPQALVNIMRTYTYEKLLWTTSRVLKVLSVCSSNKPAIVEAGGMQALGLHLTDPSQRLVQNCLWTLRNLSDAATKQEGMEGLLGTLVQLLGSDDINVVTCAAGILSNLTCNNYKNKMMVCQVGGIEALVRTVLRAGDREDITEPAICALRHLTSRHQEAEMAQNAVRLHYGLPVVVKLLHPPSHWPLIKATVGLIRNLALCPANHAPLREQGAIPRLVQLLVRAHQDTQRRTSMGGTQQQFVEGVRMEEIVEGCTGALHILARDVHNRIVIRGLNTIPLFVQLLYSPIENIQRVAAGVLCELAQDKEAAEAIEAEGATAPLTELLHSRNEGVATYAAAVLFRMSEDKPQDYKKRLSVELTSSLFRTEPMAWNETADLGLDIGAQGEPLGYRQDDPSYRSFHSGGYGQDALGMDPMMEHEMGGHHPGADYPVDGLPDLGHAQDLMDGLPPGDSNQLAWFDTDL
Assay: SPR (Biacore T100), biotinylated beta-catenin captured on streptavidin, VHH-scFc in solution
measure name: kon (M⁻¹ s⁻¹)
Field: numeric (M⁻¹ s⁻¹). Do not append units.

binder	uom	measured
IBV1-scFc (Fc fusion, not shown: a dimerising Fc or GST; large carriers; small tags and cut ends, Single chain mouse IgG Fc construct, used as transient HEK293 supernatant; also called VH-V1; VHH-scFc of V1) VHH: QVQLVQSGGGLVQPGGSLRLSCAASGSISSNNVMGWYRQGPGKQREFVASITDSDLANYAASVKGRFTISRDNAKNTVNLQMNSLRPEDTDVYYCRLTMMTYPPTISWGQGTQVTVSS	M⁻¹ s⁻¹	25100

Memo: IBO-scFc (Fc fusion, not shown: a dimerising Fc or GST; large carriers; small tags and cut ends, Single chain mouse IgG Fc construct; It is placed under this molecule; also called VH-O; biotinylated-'O') VHH: QVQLVQSGGGLVQAGDSLRLACAASEGTFRTNVMGWFRQAPGKEREFVAAISWSGGITHYSNSVKGRFAISRDNAKNTVYLQMNSLKPEDTAVYYCAADPSTTPWNLRVRVNEYEYWGQGTQVTVSS , reported kon: 71100
